system: differentiated P19 neurons; experiment: Drug screening using differentiated P19 cell assay (neuroprotection against glutamate/glycine); format: cell-based, murine; details: screened at 1 micromolar; percentage of control cells surviving after 24 hours
assay readout: % neuroprotection (cell survival relative to control) (%)
Just the number in %, nothing appended.

Example cases with answers are listed next.
[[record]]
compound = "Cc1ccc(-c2ccc(Nc3cccc(N(C)C)c3)nc2)cc1C [Cmpd 87]"
observed = 84

[[record]]
compound = "c1ccc2cc(-c3ccc(Nc4ccc(N5CCOCC5)cc4)nc3)ccc2c1 [Cmpd 25]"
observed = 100

[[record]]
compound = "COc1ccc(Nc2cccc(-c3ccco3)n2)cc1 [Cmpd 131]"
observed = 95

[[record]]
compound = "COc1ccc(Nc2cccc(-c3cccc(N)c3)n2)cc1 [Cmpd 100]"
observed = 79

[[record]]
compound = "c1ccc2cc(-c3ccc(Nc4ccc5c(c4)OCCO5)nc3)ccc2c1 [Cmpd 81]"
observed = 107


Q) Returns the measured % neuroprotection (cell survival relative to control) for the input compound. Input: COc1cc(Nc2cccc(-c3ccc(F)c(Cl)c3)n2)cc(OC)c1OC [Cmpd 142]
A) 94

Q) Would you kindly share the measured % neuroprotection (cell survival relative to control) for CN(C)c1cccc(Nc2ccc(-c3ccc(N4CCN(C(=O)OC(C)(C)C)CC4)cc3)cn2)c1 [Cmpd 38] ?
A) 89

Q) % neuroprotection (cell survival relative to control) lookup needed for FC(F)(F)Oc1ccc(-c2ccc(Nc3ccc4c(c3)OCCO4)nc2)cc1 [Cmpd 4] , thanks.
A) 86

Q) Need % neuroprotection (cell survival relative to control), item COc1cc(Nc2cccc(-c3ccc(N4CCOCC4)cc3)n2)cc(OC)c1OC [Cmpd 106]
A) 84

Q) Please look up its % neuroprotection (cell survival relative to control): COc1ccc(-c2ccc(Nc3ccc(N4CCOCC4)cc3)nc2)cc1OC [Cmpd 79]
A) 110

Q) If you can, please state the reported % neuroprotection (cell survival relative to control) value of COc1cc(Nc2ccc(-c3cccc(N(C)C)c3)cn2)cc(OC)c1OC [Cmpd 74] .
A) 95

Q) Quick one: % neuroprotection (cell survival relative to control) of FC(F)(F)Oc1cccc(-c2ccc(Nc3ccc(N4CCOCC4)cc3)nc2)c1 [Cmpd 33] ?
A) 89

Q) Query (compound): COc1ccc(Nc2ccc(C=Cc3ccccc3)cn2)c(C)c1 [Cmpd 90] ; field requested: % neuroprotection (cell survival relative to control)
A) 73

Q) Consider the compound c1ccc2sc(-c3ccc(Nc4ccc(N5CCOCC5)cc4)nc3)cc2c1 [Cmpd 22] and give its measured % neuroprotection (cell survival relative to control).
A) 98
